- tested target: GST-RORγ LBD (263-509) (Homo sapiens, UniProt P51449)
- Construct: GST-RORγ LBD ((263-509) (produced at ChemPartner))
- Sequence (P51449 263-509): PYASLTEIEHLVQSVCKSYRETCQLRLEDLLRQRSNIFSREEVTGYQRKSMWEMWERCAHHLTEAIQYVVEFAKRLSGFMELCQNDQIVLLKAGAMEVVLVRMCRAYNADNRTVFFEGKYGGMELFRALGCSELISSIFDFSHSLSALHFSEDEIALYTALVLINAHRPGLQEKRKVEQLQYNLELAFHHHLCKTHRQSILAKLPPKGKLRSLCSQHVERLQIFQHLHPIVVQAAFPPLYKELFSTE
- assay explanation: TR-FRET assay of agonistic activity on RORγ receptor
- Format: biochemical
- condition description: maximum activation rate, TOP of fitted curve
property name: Emax (%)

compound	property name	assay result
COCC(C(=O)Nc1cc(Cl)c(-c2ccc(S(=O)(=O)C3CC3)cc2)c(Cl)c1)c1ccc(S(C)(=O)=O)cc1 (single isomer, unassigned) [Example 34]	Emax	191
CCS(=O)(=O)c1ccc(CC(=O)Nc2cc(Cl)c(-c3ccc(S(=O)(=O)CC)cc3)c(Cl)c2)cc1	Emax	213
CCS(=O)(=O)c1ccc(C(COC)C(=O)Nc2cc(Cl)c(-c3ccc(S(=O)(=O)C4CC4)cc3)c(Cl)c2)cc1 (stereo not drawn)	Emax	187

Data origin: patent US20220402867A1
